- system_name: hGIPR (Homo sapiens, UniProt P48546)
- Sequence (P48546 22-466): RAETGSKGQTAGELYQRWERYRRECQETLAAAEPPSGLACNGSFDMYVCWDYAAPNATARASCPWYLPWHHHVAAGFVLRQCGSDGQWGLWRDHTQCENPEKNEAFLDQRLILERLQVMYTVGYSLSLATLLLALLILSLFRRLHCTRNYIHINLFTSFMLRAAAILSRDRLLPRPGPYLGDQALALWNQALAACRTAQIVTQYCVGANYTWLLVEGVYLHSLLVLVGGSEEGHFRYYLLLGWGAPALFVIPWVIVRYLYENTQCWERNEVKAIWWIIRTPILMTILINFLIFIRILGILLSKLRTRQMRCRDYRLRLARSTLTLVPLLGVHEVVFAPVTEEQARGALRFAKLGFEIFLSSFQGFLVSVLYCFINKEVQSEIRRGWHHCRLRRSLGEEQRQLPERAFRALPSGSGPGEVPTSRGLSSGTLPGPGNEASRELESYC
- assay_name: Functional cAMP activity in the presence of 1% HSA
- Type: cell-based
- condition: read-out: cAMP Rel EC50, hGIPR
Starred links: 1 amine or outer side, 2 acyl side, 3 side chain; linkers in the order of their positions; H or OH if unused. Non-standard residues stand in square brackets, D forms with d. Groups on a side chain read outwards from the residue. *: point of attachment. C18 diacid = O=C(O)CCCCCCCCCCCCCCCCC(=O)*; αMePhe(2-F) = C[C@](N)(Cc1ccccc1F)C(=O)O; γGlu = O=C(O)[C@H](CCC(=O)[*:2])N[*:1]; αMe4Pal = C[C@](N)(Cc1ccncc1)C(=O)O; αMeY = C[C@](N)(Cc1ccc(O)cc1)C(=O)O; 4Pal = N[C@@H](Cc1ccncc1)C(=O)O; αMeL = CC(C)C[C@](C)(N)C(=O)O; αMeS = C[C@](N)(CO)C(=O)O; Orn = NCCC[C@H](N)C(=O)O; AEEA = NCCOCCOCC(=O)O; Aib = CC(C)(N)C(=O)O
Assignment: determine reported EC50 for the given substances.
Please reply with the bare figure in nM and do not write the unit itself.

What EC50 appears in the records for this substance with hGIPR (Homo sapiens, UniProt P48546)? H-Y[Aib]QGTFTSD[4Pal]SQ[αMeL]LD[Orn]K([AEEA-γGlu-C18 diacid])AQ[αMe4Pal]AFIEYLIQ[Aib]GPSSGEPPPSGSEE-NH2 [Example 1096]
11.6

Recall the recorded EC50 for H-Y[Aib]QGT[αMePhe(2-F)]TSD[4Pal][αMeS]I[αMeL]LD[Orn]K([AEEA-γGlu-C18 diacid])AQ[αMe4Pal]EFI[dE][αMeY]LIEGGPSSGEPPPEGGGE-NH2 [Example 760] with hGIPR (Homo sapiens, UniProt P48546) and state it.
1.29

Param readout = EC50; param system = hGIPR (Homo sapiens, UniProt P48546); param query = H-Y[Aib]QGT[αMePhe(2-F)]TSD[4Pal]SI[αMeL]LD[Orn]K([AEEA-γGlu-C18 diacid])AQ[Aib][Orn]FIEYLIEGGPSSGEPPPSEG-NH2 [Example 489] ; response: value
1.25

// fetch hGIPR (Homo sapiens, UniProt P48546) EC50 for H-Y[Aib]QGT[αMePhe(2-F)]TSD[4Pal]SILLDKK([γGlu-γGlu-C18 diacid])AQ[Aib]AFIEWLQEGGPSSGEPPPSGTEE-NH2 [Example 579]
3.79

Checklist item: EC50 tested on hGIPR (Homo sapiens, UniProt P48546), entry H-Y[Aib]QGTFTSDFS[Orn][αMeL]LDKK([AEEA-AEEA-γGlu-C18 diacid])AQ[Aib]AFIEWLLEGGHSSGAPPPSGE-NH2 [Example 169] , value?
21.5
